Tested on: MDA-MB-435 melanoma
Experiment: NCI-60 one-dose screen, 48 h
Details: 10 µM unless noted
The panel holds about 83,000 compounds, 20% with a hit somewhere; the sample as a whole holds those more often. The source made the active and inactive calls. The calls were made as follows: active = growth percent below 10; inactive = the rest.
Lab note: assign the record to one of active, inactive

- COMPOUND SMILES: "CCCCCCCCCCCCNC(=S)N/N=C/c1ccccc1O"
  CAT: "inactive"

Input line: What is the recorded call for this compound in the test? `Clc1ccc(/C=N/Nc2nc3ccccc3s2)c(Cl)c1`
Output line: inactive

Input line: What is the recorded call for this compound in the test? `C[C@]12CCc3nc(Nc4ccccc4)sc3C1=CC[C@@H]1[C@@H]2CC[C@]2(C)/C(=N/NC(N)=S)CC[C@@H]12`
Output line: inactive

Input line: What is the recorded call for this compound in the test? `CC(C)c1ccc(C(=O)Nc2nc3ccc(O)cc3s2)cc1`
Output line: inactive

Input line: What is the recorded call for this compound in the test? `N#CCCc1c[nH]c2ccccc12`
Output line: inactive

Input line: What is the recorded call for this compound in the test? `CCCCCCCCCCCCCCCCCCNC(=S)N/N=C/c1ccc(OC)c(OC)c1`
Output line: inactive

====

Tested on: LOX IMVI melanoma
Test: NCI-60 one-dose screen, 48 h
Settings: 10 µM unless noted
About 83,000 compounds went through this panel and 20% of them were active in at least one assay; those are over-represented in the sample as a whole. Calls of active or inactive are those of the source. The calls were made as follows: active = growth percent below 10; inactive = the rest.
Lab note: assign the record to one of active, inactive

Consider the following illustrative entries.
- MOLECULE: "c1ccc(-c2nnc(-c3c[nH]c4ncccc34)s2)cc1"
  CAT: "inactive"
- MOLECULE: "CCN(CCNc1ccc(C)c2sc3cc(Cl)ccc3c(=O)c12)CC(C)O (centres undefined)"
  CAT: "active"
- MOLECULE: "CCCCCCCCCN(CCCCCCCCC)C(C)C(=O)c1ccc2cc(Br)c3ccccc3c2c1 (centres undefined)"
  CAT: "inactive"
- MOLECULE: "O=C(Nc1ccc(CN2CCOCC2)c(C(F)(F)F)c1)c1nc2ccc3[nH]ncc3c2c2c1CCCC2"
  CAT: "inactive"
- MOLECULE: "O=c1[nH]cnc2c1ccn2C1OC(CO)C(O)C1O (centres undefined)"
  CAT: "inactive"
- MOLECULE: "C[C@H]1[C@H](C)CC[C@]2(C(=O)O)CC[C@]3(C)C(=CC[C@@H]4[C@@]5(C)C/C(=C/c6ccco6)C(=O)C(C)(C)[C@@H]5CC[C@]43C)[C@H]12"
  CAT: "active"
- MOLECULE: "O=C(CCCSc1nc(-c2ccccc2)cc(-c2ccccc2)n1)NO"
  CAT: "active"
- MOLECULE: "COc1ccc(-c2cc(-c3ccc(Cl)cc3)nc(SCCCCCCC(=O)NO)n2)cc1"
  CAT: "active"

Okay, now this molecule:
Input line: What is the recorded call for this molecule in the test? `COc1cc2c(=O)[nH]c3cc([N+](=O)[O-])ccc3c2cc1[N+](=O)[O-]`
Output line: inactive

====

Test system: T-47D breast
Assay: NCI-60 one-dose screen, 48 h
Conditions: 10 µM unless noted
This is part of a sample that, as a whole, favours compounds with a hit. Of some 83,000 tested, about 20% had one in any assay. Activity calls are given as the source filed them. The calls were made as follows: active = growth percent below 10; inactive = the rest.
Lab note: assign the record to one of t (active), f (inactive)

Consider the following illustrative entries.
- COMPOUND: "N#Cc1c(N2CCOCC2)nc(=S)[nH]c1-c1ccco1"
  CAT: "f"
- COMPOUND: "C=C(C)[C@@H]1CC[C@]2(C)[C@H](CC=C3[C@@H]4[C@@H](C)[C@H](C)CC[C@]4(C(N)=O)CC[C@]32C)[C@@]1(C)CCC#N"
  CAT: "t"
- COMPOUND: "CCCCCCSc1ncnc2nc[nH]c12"
  CAT: "f"
- COMPOUND: "CO[C@H]1CC[C@@]2(C)C(=CC[C@H]3[C@@H]4C[C@H](O)C[C@@]4(C)CC[C@@H]32)C1"
  CAT: "f"
- COMPOUND: "CCOC(=O)CCC[P+](c1ccccc1)(c1ccccc1)c1ccccc1"
  CAT: "f"
- COMPOUND: "O=C(CCNCc1ccccc1)c1ccccc1"
  CAT: "f"
- COMPOUND: "CC1(C)CC[C@]23CC[C@]4(C)[C@H](CC[C@@H]5[C@@]6(C)C/C(=C/c7cccnc7)C(=O)C(C)(C)[C@@H]6CC[C@]54C)[C@H]2[C@H]1OC3=O"
  CAT: "f"
- COMPOUND: "C=C(C)[C@@H]1CC[C@]2(C(=O)NCCNCCNCCN)CC[C@]3(C)[C@H](CC[C@@H]4[C@@]5(C)CCC(=O)C(C)(C)[C@@H]5CC[C@]43C)[C@@H]12"
  CAT: "t"
- COMPOUND: "O=C1NC(=O)c2cc([N+](=O)[O-])cc3cccc1c23"
  CAT: "f"
- COMPOUND: "CCn1cc(-c2[nH]c(=S)ncc2-c2ccc(Cl)cc2)c(-c2ccc(Br)cc2)n1"
  CAT: "f"

Input line: What is the recorded call for this compound in the test? `O=C(O)c1cn(C2CC2)c2cc(N3CCN(Cc4c(O)ccc5ccccc45)CC3)c(F)cc2c1=O`
Output line: f

Input line: What is the recorded call for this compound in the test? `Cn1cc(-c2noc(C(=O)c3cn(C)c4ncc(Br)cc34)n2)c2ccccc21`
Output line: f

====

System: PC-3 prostate
Test: NCI-60 one-dose screen, 48 h (100 = growth as untreated, 0 = no growth, -100 = all killed)
Conditions: 10 µM unless noted
Compounds without any hit were thinned out: in the full panel of roughly 83,000, 20% have a hit. Active and inactive are the calls of the source. The calls were made as follows: active = growth percent below 10; inactive = the rest.
OBSERVABLE: growth

Some entries whose results are on file:
- COMPOUND: "CCN(CC)CC(C)Nc1ccc(C)c2sc3ccccc3c(=O)c12 (stereo unspecified)"
  growth: "47.6% (inactive)"
- COMPOUND: "COc1ccc(-c2cc(-c3ccccc3)nc(SCCCCCC(=O)NO)n2)cc1"
  growth: "70.7% (inactive)"
- COMPOUND: "CCCCN(CC)CC(CC)Nc1cc(OC)cc2cccnc12 (stereo unspecified)"
  growth: "96.5% (inactive)"

Input line: Look up growth for this compound: `N#C/C(C(=O)c1ccccc1)=C1/C(=O)Nc2ccc(F)cc21`
Output line: 93.3% (inactive)

Input line: Look up growth for this compound: `CN(C)CCOc1ccc(/C(=C(/CCCl)c2ccccc2)c2ccccc2)cc1`
Output line: 18.7% (inactive)

Input line: Look up growth for this compound: `CC1=CC[C@@H]2C(C)(C)C(=O)CC[C@@]2(C)[C@@H]1COc1ccc2ccc(=O)oc2c1`
Output line: 58.4% (inactive)

====

Listed next: entries and their corresponding growth.
Test system: HT29 colon
Experiment: NCI-60 one-dose screen, 48 h (100 = growth as untreated, 0 = no growth, -100 = all killed)
Settings: 10 µM unless noted
The panel holds about 83,000 compounds, 20% with a hit somewhere; the sample as a whole holds those more often. Active and inactive are the calls of the source. The calls were made as follows: active = growth percent below 10; inactive = the rest.

- COMPOUND SMILES: "C1=C[C@H]2O[C@@H]1c1ccc3[nH]ccc3c12"
  growth: "87.7% (inactive)"
- COMPOUND SMILES: "c1nc(N2CCOCC2)c2[nH]ccc2n1"
  growth: "96% (inactive)"
- COMPOUND SMILES: "O=[N+]([O-])c1cc([N+](=O)[O-])c(NN=C(c2ccc(O)cc2)c2ccc(O)cc2)cc1Cl"
  growth: "-82.6% (active)"

Turning now to a further record.
Input line: Look up growth for this molecule: `Cc1cccc(C[C@H](NC(=O)Nc2ccc(Cl)cc2F)C(=O)N[C@@H]2C(=O)N3C[C@H](OC(=O)CCN(C)C)C[C@H]3C(=O)N3CCCC[C@H]3C(=O)N[C@@H](C)C(=O)N3C[C@H](C)C[C@H]3C(=O)O[C@H]2C)c1`
Output line: 5.77% (active)

====

Tested on: SK-MEL-28 melanoma
Assay: NCI-60 one-dose screen, 48 h
Settings: 10 µM unless noted
This is part of a sample that, as a whole, favours compounds with a hit. Of some 83,000 tested, about 20% had one in any assay. Activity calls are given as the source filed them. Rule for the calls: active = growth percent below 10; inactive = the rest.
Lab note: assign the record to one of active, inactive

Consider the following illustrative entries.
- COMPOUND: "C[N+](C)(C)c1ncnc2[n-]cnc12"
  ASSAY TARGET: "SK-MEL-28 melanoma"
  CAT: "inactive"
- COMPOUND: "CO[C@H]1CC[C@@]2(C)C(=CC[C@H]3[C@@H]4C[C@H](O)C[C@@]4(C)CC[C@@H]32)C1"
  ASSAY TARGET: "SK-MEL-28 melanoma"
  CAT: "inactive"
- COMPOUND: "COc1ccc(C2CC(c3cc(OC)c(OC)c(OC)c3)=NN2C(C)=O)cc1OCC(=O)Nc1nc2ccc(C(F)(F)F)cc2s1 (stereo not given)"
  ASSAY TARGET: "SK-MEL-28 melanoma"
  CAT: "inactive"
- COMPOUND: "COc1ccc2c(c1)c(-c1noc(C(=O)c3cn(C)c4ncc(Br)cc34)n1)cn2C"
  ASSAY TARGET: "SK-MEL-28 melanoma"
  CAT: "inactive"
- COMPOUND: "Cc1ccc(NCCN2CCCCC2)c2c(=O)c3ccccc3sc12"
  ASSAY TARGET: "SK-MEL-28 melanoma"
  CAT: "inactive"

Input line: What is the recorded call for this compound in the test? C#CC(OC(=O)N(C)C)(c1ccccc1)c1ccc(F)cc1 (stereo not given)
Output line: inactive

Input line: What is the recorded call for this compound in the test? `CC1(C)C(=O)/C(=C\c2ccco2)C[C@]2(C)[C@H]3CC=C4[C@@H]5C[C@](C)(C(=O)O)CC[C@]5(C)CC[C@@]4(C)[C@]3(C)CC[C@@H]12`
Output line: active

Input line: What is the recorded call for this compound in the test? `Clc1ccc(N2CCN(CCCN3CCN(c4cccc(Cl)c4)CC3)CC2)cc1`
Output line: inactive

Input line: What is the recorded call for this compound in the test? `Cc1ccc(S(=O)(=O)n2cc(C(=O)C(=O)N3CCCCC3)c3ccccc32)cc1`
Output line: inactive

Input line: What is the recorded call for this compound in the test? `CC(C)c1ccc(C(=O)Nc2nc3ccc(O)cc3s2)cc1`
Output line: inactive

Hey, just so you know, these numbers are from PubChem BioAssay (NCI).
